System: 5-HT1A receptor (Rattus norvegicus)
Construct: from tissue; host or cells: rat (male Wistar) brain cortex membranes
Assay Protocol: [3H]-8-OH-DPAT radioligand binding assay, rat cortex membranes
Protocol Conditions: read-out: Inhibition at 300 µM
Observed Property: inhibition at 300 µM (%)
One number for each entry, in %.

Solved entries (count: 4):
Molecule: C#CCN1CCC(/C=C\c2cccc(F)c2)CC1 [Compound 69]
Unit Info: %
inhibition at 300 µM: 92
//
Molecule: C#CCN1CCC(/C=C/c2ccc(C(F)(F)F)cc2)CC1 [Compound 84]
Unit Info: %
inhibition at 300 µM: 48
//
Molecule: C#CCN1CCC(/C=C\c2ccc(F)cc2)CC1 [Compound 6]
Unit Info: %
inhibition at 300 µM: 88
//
Molecule: C#CCN1CCC(/C=C\c2ccccc2)CC1 [Compound 67]
Unit Info: %
inhibition at 300 µM: 96

Shifting focus to the molecule that follows.
Record C#CCN1CCC(CCc2ccc(C#N)cc2)CC1 [Compound 102] . Reported inhibition at 300 µM: 78

###

Assay Protocol: In vitro permeability, rat intestine in diffusion chambers
Assay type: in vitro ADME
Protocol Conditions: male, Sprague-Dawley, pH 7.4; rat intestine, 50 μM donor, mean ± SEM; read-out: apparent permeability coefficient, eliminatory direction
Observed Property: Papp B→A at 50 µM (×10⁻⁶ cm/s)
Numbers only, in ×10⁻⁶ cm/s.

Quick note, Papp B→A at 50 µM for C#CCN1CCC(/C=C\c2cccc(F)c2)CC1 [Compound 69] landed at 35.4

###

System: 5-HT1A receptor (Rattus norvegicus)
Sequence (P19327 1-422): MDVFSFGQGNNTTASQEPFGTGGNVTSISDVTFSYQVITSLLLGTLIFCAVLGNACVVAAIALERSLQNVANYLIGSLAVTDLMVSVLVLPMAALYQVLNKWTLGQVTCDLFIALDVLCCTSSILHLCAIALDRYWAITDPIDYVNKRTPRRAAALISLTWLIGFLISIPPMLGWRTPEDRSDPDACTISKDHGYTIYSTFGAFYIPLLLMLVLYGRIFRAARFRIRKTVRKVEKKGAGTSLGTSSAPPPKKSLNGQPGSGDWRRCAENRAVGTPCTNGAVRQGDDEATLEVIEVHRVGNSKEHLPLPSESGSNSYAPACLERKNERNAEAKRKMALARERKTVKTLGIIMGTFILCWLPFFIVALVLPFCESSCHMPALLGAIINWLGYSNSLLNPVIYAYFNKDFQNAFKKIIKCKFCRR
Could you please report measured pKi for the items listed next?
One number for each entry, as −log10 of the molar value.

The cases that follow already have their pKi on record.
Cpd Smiles: C#CCN1CCC(/C=C\c2cccc(F)c2)CC1
System: 5-HT1A receptor (Rattus norvegicus)
Observed Property: pKi
Measured Number: 5.77

Cpd Smiles: C#CCN1CCC(CCc2ccc(C(F)(F)F)cc2)CC1
System: 5-HT1A receptor (Rattus norvegicus)
Observed Property: pKi
Measured Number: 4.59

Field pKi (entry C#CCN1CCC(/C=C\c2ccc(F)cc2)CC1 ) reads 5.62

###

For each entry below, report its thermodynamic solubility value.
Assay Protocol: Thermodynamic solubility in PBS
Assay type: physicochemical
Protocol Conditions: PBS (pH 7.4), 37 °C, 24 h, hydrochloride salts

Cpd Smiles: C#CCN1CCC(/C=C\c2cccc(F)c2)CC1
thermodynamic solubility: ≥ 8.6 g/250 mL

Cpd Smiles: C#CCN1CCC(CCc2ccc(C(C)C)cc2)CC1
thermodynamic solubility: ≥ 14.5 g/250 mL

Cpd Smiles: C#CCN1CCC(/C=C\c2ccccc2)CC1
thermodynamic solubility: ≥ 10.5 g/250 mL

# evaluate next
response.value for C#CCN1CCC(CCc2ccc(C(F)(F)F)cc2)CC1 (field: thermodynamic solubility) = ≥ 16.3 g/250 mL
